# TARGET OF ASSAY: protein farnesyl transferase (Bos taurus, UniProt P29702+P49355)
# Construct: partially purified from bovine brain by ion-exchange chromatography; from tissue; host or cells: bovine brain
# ASSAY PROTOCOL: Evaluation of the inhibition of protein farnesyl transferase (dansyl-GCVLS fluorescence)
# Format: biochemical, bovine
# MEASUREMENT CONDITIONS: read-out: IC50 PFTase
# Source text: A) Evaluation of the inhibition of protein farnesyl transferase The farnesylation of the dansylated peptide GCVLS, catalyzed with the enzyme protein farnesyl transferase, results in a change in the emission spectrum of the dansyl group, and especially an increase in the emission at 505 nm when the molecule is excited at 340 nm. When measured using the spectrofluorimeter, this emission is proportional to the activity of the enzyme (Pompliano et al., J. Am. Chem. Soc. 1992; 114: 7945-7946). […]
MEASUREMENT TYPE: IC50 (nM)

Below are worked cases with known answers.
Memo: N#Cc1ccc(Cn2cncc2CN(C(=O)c2ccccc2)c2ccc3[nH]c(C(=O)N4CCCCC4)c(-c4ccccc4)c3c2)cc1 , reported IC50: 8

The recorded IC50 for CC(C)C[C@H](NC(=O)c1cc2c(NCc3cncn3Cc3ccc(C#N)cc3)cccc2s1)C(=O)O is 4

For N#Cc1ccc(Cn2cncc2CN(c2ccc3sc(C(=O)NC4CCCC4)cc3c2)S(=O)(=O)c2ccccc2)cc1 the compound record lists IC50 as 3

Measured IC50 of N#Cc1ccc(Cn2cncc2CN(C(=O)Cc2ccccc2)c2ccc3sc(C(=O)N4CCSCC4)cc3c2)cc1 : 6

GET /value?item= CCCCNC(=O)c1cc2cc(N(Cc3cncn3Cc3ccc(C#N)cc3)S(=O)(=O)c3ccccc3)ccc2s1 &field=IC50 returns 3

Recorded result, CSCC[C@H](NC(=O)c1cc2c(N(Cc3cncn3Cc3ccc(C#N)cc3)S(=O)(=O)c3ccccc3)cccc2s1)C(=O)O , IC50: 6

A. N#Cc1ccc(Cn2cncc2CN(C(=O)C2CCCCC2)c2ccc3sc(C(=O)N4CCSCC4)cc3c2)cc1
B. N#Cc1ccc(Cn2cncc2CN(c2ccc3sc(C(=O)NCc4cccs4)cc3c2)S(=O)(=O)c2ccccc2)cc1
Which shows the larger IC50 value: A or B ? Pick one and reply with its label.
A

P. N#Cc1ccc(Cn2cncc2CN(C(=O)C2CCCCC2)c2ccc3[nH]c(C(=O)N4CCCCC4)c(-c4ccccc4)c3c2)cc1
Q. N#Cc1ccc(Cn2cncc2CN(C(=O)c2cccs2)c2ccc3sc(C(=O)N4CCSCC4)cc3c2)cc1
For P and Q , which recorded IC50 is lower? Could you answer with the label of the item you picked?
Q
(Q: 2 nM, P: 400 nM)

Measured values drawn from patent US20040204417A1 for this set.
